Entries annotated with measured Barnyardgrass plant response rating
- System: barnyardgrass
- procedure-summary: Test C postemergence
- Type: in vivo, Echinochloa crus-galli
- experimental-parameters: postemergence, 62 g ai/ha; scale 0 to 100
- Description: […]
Form rule: numeric answer, no unit written next to it.

# count of solved cases: 5
[[record]]
structure_string = "CCCNC(=O)c1cc(CCF)n(Cc2ccnc(C(F)(F)F)c2)n1"
reported_property = "Barnyardgrass plant response rating"
data_value = 5

[[record]]
structure_string = "CCOc1cc(C(=O)NCC(F)(F)F)nn1Cc1ccnc(OC(F)F)c1"
reported_property = "Barnyardgrass plant response rating"
data_value = 5

[[record]]
structure_string = "CCc1cc(C(=O)NCC(F)(F)F)nn1Cc1ccnc(Br)c1"
reported_property = "Barnyardgrass plant response rating"
data_value = 10

[[record]]
structure_string = "CCc1cc(C(=O)NOC(C)C)nn1Cc1ccnc(OC(F)F)c1"
reported_property = "Barnyardgrass plant response rating"
data_value = 5

[[record]]
structure_string = "CCCc1cc(C(=O)NC(C)C)nn1Cc1cc(C(F)(F)F)nn1C"
reported_property = "Barnyardgrass plant response rating"
data_value = 10


query: Specify reported Barnyardgrass plant response rating for the compound shown: CCCNC(=O)c1cc(CC)n(Cc2ccnc(C(F)(F)F)c2)n1
result: 10

query: Give the measured Barnyardgrass plant response rating for CCCc1cc(C(=O)NC(C)C)nn1Cc1ccnc(C(F)(F)F)c1
result: 10

###

- Tested on: foxtail, giant
- procedure-summary: Test A postemergence
- Assay type: in vivo, Setaria faberii
- experimental-parameters: Postemergence, 500 g ai/ha; visual rating after approx. 10 days, 0 to 100 scale (0 no effect, 100 complete control)
For each record, check the reported Foxtail, Giant plant response rating: if it is below 30 write Condition met, else write Condition not met.

Consider the following illustrative entries.
[[record]]
structure_string = "CCc1cc(C(=O)NCC(F)(F)F)nn1Cc1nc(C(F)(F)F)nn1C"
class = "Condition not met"

[[record]]
structure_string = "CCc1cc(C(=O)NC2CC2)nn1Cc1ccnc(C(F)(F)F)c1"
class = "Condition not met"

[[record]]
structure_string = "CCCNC(=O)c1cc(CC)n(Cc2nc(C(F)(F)F)nn2C)n1"
class = "Condition not met"

[[record]]
structure_string = "CCCNC(=O)c1cc(CC)n(Cc2cccc(C(F)(F)F)n2)n1"
class = "Condition met"

[[record]]
structure_string = "CCc1cc(C(=O)NOC(C)C)nn1Cc1cccc(OC(F)(F)F)c1"
class = "Condition not met"

[[record]]
structure_string = "CCc1cc(C(=O)NCC(F)(F)C(F)(F)F)nn1Cc1ccnc(C(F)(F)F)c1"
class = "Condition not met"

[[record]]
structure_string = "Cc1cc(C(=O)NCC(F)(F)C(F)(F)F)nn1Cc1cccc(OC(F)(F)F)c1"
class = "Condition met"


Kindly consider the entry below.
query: Criterion: Foxtail, Giant plant response rating strictly below 30. Is it met by Cc1cc(C(=O)NCC(F)(F)F)nn1Cc1cccc(OC(F)(F)F)c1 ?
result: Condition not met

###

- Tested on: nutsedge, yellow
- procedure-summary: Test C preemergence
- Assay type: in vivo, Cyperus esculentus
- experimental-parameters: preemergence, 250 g ai/ha; scale 0 to 100, 0 is no effect, 100 is complete control
Nutsedge, Yellow plant response rating: recorded values
Please reply with the number alone, leaving off any unit.

Below, 3 compounds whose answers are already recorded.
[[record]]
structure_string = "CCc1cc(C(=O)NCC(F)(F)F)nn1Cc1ccnc(SC(F)(F)F)c1"
reported_property = "Nutsedge, Yellow plant response rating"
data_value = 65

[[record]]
structure_string = "CCOc1cc(C(=O)NOC(C)C)nn1Cc1ccnc(C(F)(F)F)c1"
reported_property = "Nutsedge, Yellow plant response rating"
data_value = 95

[[record]]
structure_string = "O=C(NC1CC1)c1cc(CCCl)n(Cc2ccnc(C(F)(F)F)c2)n1"
reported_property = "Nutsedge, Yellow plant response rating"
data_value = 90


query: Please supply the value of reported Nutsedge, Yellow plant response rating for the item CCNC(=O)c1cc(CC)n(Cc2cc(C(F)(F)F)nn2C)n1
result: 60

query: Retrieve Nutsedge, Yellow plant response rating measured for CCCNC(=O)c1cc(OCC)n(Cc2ccnc(OC(F)F)c2)n1 and print it.
result: 85

query: # return recorded Nutsedge, Yellow plant response rating for input CCCc1cc(C(=O)NC(C)C)nn1Cc1ccnc(C(F)(F)F)c1
result: 98

query: Return reported Nutsedge, Yellow plant response rating. Input compound: CCCc1cc(C(=O)NC(C)C)nn1Cc1cc(C(F)(F)F)nn1C
result: 80

query: Give Nutsedge, Yellow plant response rating for CCCc1cc(C(=O)NC2CC2)nn1Cc1cc(C(F)(F)F)nn1C
result: 50

###

# Plant response rating, Morningglory annotations
- Tested on: morningglory
- procedure-summary: Test C postemergence
- Format: in vivo, Ipomoea coccinea
- experimental-parameters: postemergence; 125 g ai/ha; scale 0 to 100, 0 no effect, 100 complete control
Respond numerically, and do not add a unit to the figure.

[[record]]
structure_string = "CCCNC(=O)c1cc(CC)n(Cc2nc(C(F)(F)F)nn2C)n1"
data_value = 75

[[record]]
structure_string = "CCc1cc(C(=O)NCC(F)(F)F)nn1Cc1ccnc(Br)c1"
data_value = 25


query: Indicate the recorded Plant response rating, Morningglory value for this compound: CCCNC(=O)c1cc(CCF)n(Cc2ccnc(C(F)(F)F)c2)n1
result: 85

query: Provide only the value of recorded Plant response rating, Morningglory for CCCc1cc(C(=O)NC2CC2)nn1Cc1ccnc(OC(F)F)c1
result: 80

query: Identify measured Plant response rating, Morningglory corresponding to CCc1cc(C(=O)NOC(C)C)nn1Cc1cccc(OC(F)(F)F)c1
result: 75

###

The following molecules are shown together with reported Plant response rating, Ragweed values.
- Test system: ragweed
- procedure-summary: Test C postemergence
- Type: in vivo, Ambrosia elation
- experimental-parameters: postemergence, 250 g ai/ha; scale 0 to 100 (0 no effect, 100 complete control)
- From the text: […]
// return a plain number; no unit text

Reference set (4 entries):
[[record]]
molecule = "CCc1cc(C(=O)NCC(F)(F)F)nn1Cc1ccnc(SC(F)(F)F)c1 [Compound 214]"
reported_property = "Plant response rating, Ragweed"
data_value = 70

[[record]]
molecule = "CCCNC(=O)c1cc(CCF)n(Cc2ccnc(C(F)(F)F)c2)n1 [Compound 177]"
reported_property = "Plant response rating, Ragweed"
data_value = 75

[[record]]
molecule = "CCc1cc(C(=O)NCC(F)(F)F)nn1Cc1cccc(OC(F)(F)F)c1 [Compound 20]"
reported_property = "Plant response rating, Ragweed"
data_value = 25

[[record]]
molecule = "CCc1cc(C(=O)NC2CC2)nn1Cc1ccnc(Br)c1 [Compound 220]"
reported_property = "Plant response rating, Ragweed"
data_value = 45


Then there is this molecule:
query: Note down Plant response rating, Ragweed recorded for CCCc1cc(C(=O)NC2CC2)nn1Cc1cc(C(F)(F)F)nn1C [Compound 202]
result: 80

###

- Tested on: morningglory
- procedure-summary: Test C preemergence
- Assay type: in vivo, Ipomoea coccinea
- experimental-parameters: preemergence, 125 g ai/ha; 13 to 15 days; scale 0 to 100, 0 = no effect, 100 = complete control
reported-property: Plant response rating, Morningglory
Answer as a number with no unit attached.

[[record]]
molecule = "CCCc1cc(C(=O)NCC(F)(F)F)nn1Cc1ccnc(OC(F)F)c1 [Compound 127]"
data_value = 100

[[record]]
molecule = "O=C(NC1CC1)c1cc(CCF)n(Cc2ccnc(C(F)(F)F)c2)n1 [Compound 176]"
data_value = 98

[[record]]
molecule = "CCc1cc(C(=O)NCC(F)(F)F)nn1Cc1ccnc(Br)c1 [Compound 224]"
data_value = 40

[[record]]
molecule = "CCCc1cc(C(=O)NC2CC2)nn1Cc1cc(C(F)(F)F)nn1C [Compound 202]"
data_value = 100

[[record]]
molecule = "CCCNC(=O)c1cc(OCC)n(Cc2ccnc(C(F)(F)F)c2)n1 [Compound 187]"
data_value = 100


query: Supply measured Plant response rating, Morningglory of CCCc1cc(C(=O)NOC(C)C)nn1Cc1cc(C(F)(F)F)nn1C [Compound 203] in your reply.
result: 85

query: Given CCCc1cc(C(=O)NC(C)C)nn1Cc1ccnc(C(F)(F)F)c1 [Compound 186] , respond with its Plant response rating, Morningglory.
result: 100

###

Readings of Plant response rating, Oilseed Rape for the listed compounds
- Tested on: oilseed rape
- procedure-summary: Test C postemergence
- Format: in vivo, Brassica napus
- experimental-parameters: postemergence; 125 g ai/ha; scale 0 to 100, 0 no effect, 100 complete control
- From the text: […]

The cases that follow already have their Plant response rating, Oilseed Rape on record.
[[record]]
structure_string = "CCCc1cc(C(=O)NCC(F)(F)F)nn1Cc1ccnc(OC(F)F)c1"
assayed_system = "oilseed rape"
data_value = 80

[[record]]
structure_string = "CCCc1cc(C(=O)NC(C)C)nn1Cc1cc(C(F)(F)F)nn1C"
assayed_system = "oilseed rape"
data_value = 50

[[record]]
structure_string = "CCCNC(=O)c1cc(CCF)n(Cc2ccnc(C(F)(F)F)c2)n1"
assayed_system = "oilseed rape"
data_value = 60


Query compound follows.
query: Consider the compound CCCc1cc(C(=O)NC2CC2)nn1Cc1cc(C(F)(F)F)nn1C . State its measured Plant response rating, Oilseed Rape.
result: 65
